Reference source: FireProtDB (doi:10.1021/bi050502v)

Task for the reader: assign each of the following variants its reported ddG of mutation (higher = less stable).
B1: Apolipophorin-3b, P10762 (parent)
chain: MNTLLAVLMLAVAAQARPDAAGHVNIAEAVQQLNHTIVNAAHELHETLGLPTPDEALNLLTEQANAFKTKIAEVTTSLKQEAEKHQGSVAEQLNRFARNLNNSIHDAATSAQPADQLNSLQSALTNVGHQWQTSQPRPSVAQEAWAPVQSALQEAAEKTKEAAANLQNSIQSAVQKPAN

variants of: B1; details: Locusta migratoria; pH 7.4; 25 °C; GdnHCl; CD; Na2HPO4 KH2PO4 10 mM 2 mM; NaCl 127 mM; reversible: yes; structure 1LS4; whole UniProt chain shown
Field format: number, assumed kcal/mol, no unit text.

Task: Which ddG of mutation (higher = less stable) value is on record for T47A T159A ?
Output: 1.06

Task: Dear colleague, I am looking for the recorded ddG of mutation (higher = less stable) of the following variant: "L33K"
Output: 1.36

Task: Need ddG of mutation (higher = less stable) of "A155K" , thanks.
Output: 1.69

Task: May I ask what ddG of mutation (higher = less stable) has been recorded for "T159A" ?
Output: 1.32

Task: # get_value(readout='ddG of mutation (higher = less stable)', item= "T47A" )
Output: -0.6
